# protocol summary: qHTS Assay for Lipid Storage Modulators: COS7 Assay against Probe and Analogs
# protocol conditions: COS7 lipid droplet area, BODIPY imaging, 18 h; cells loaded with 400 µM oleic acid
Records with an inconclusive call do not appear. Active and inactive are the calls of the source. Calls come from the whole dose curve; as a rule, active = well fitted inhibition curve with a large enough effect; inconclusive = small, poorly fitted or top-dose-only effect; inactive = no such curve, though single readings can be large or run the other way.
Potency: recorded values

{"compound": "CCOc1ccc(CCNC(=O)c2cc3sccc3n2Cc2ccccc2)c(F)c1OCC", "Potency": "16.6 µM (active)"}
{"compound": "CCOc1ccc(CCNC(=O)c2cc3ccccc3n2C)cc1OCC", "Potency": "16.6 µM (active)"}
{"compound": "CCOc1cc2c(cc1OCC)CN(C(=O)c1cc3sccc3n1Cc1ccccc1)CC2", "Potency": "3.32 µM (active)"}
{"compound": "O=C(NC1CCCc2c1cnn2-c1ccc(O)cc1)c1ccccn1 (stereo not given)", "Potency": "10.5 µM (active)"}
{"compound": "COc1cccc(-n2ncc3c2CCCC3NC(=O)c2ccccn2)c1 (stereo not given)", "Potency": "5.9 µM (active)"}
{"compound": "CCOc1ccc(CCNC(=O)c2cccc(C(=O)c3ccccc3)c2)cc1OCC", "Potency": "14.8 µM (active)"}
{"compound": "CCOc1ccc(CCNC(=O)c2cc3sccc3n2CCN2CCOCC2)cc1OCC", "Potency": "2.96 µM (active)"}
{"compound": "CCOc1ccc(CCNC(=O)c2cc3ccccc3o2)cc1OCC", "Potency": "29.6 µM (active)"}
{"compound": "CCOc1ccc(CCNC(=O)c2ccc(C3(C(F)(F)F)N=N3)cc2)cc1OCC", "Potency": "7.43 µM (active)"}
{"compound": "O=C(NC1CCCc2c1cnn2-c1cccc(O)c1)c1ccccn1 (stereo not given)", "Potency": "4.18 µM (active)"}
{"compound": "O=C(NCCc1ccc(OCC(F)(F)F)c(OCC(F)(F)F)c1)c1cc2sccc2n1Cc1ccccc1", "Potency": "2.96 µM (active)"}
{"compound": "CCOc1ccc(CCNC(=O)C2COc3ccccc3O2)cc1OCC (stereo not given)", "Potency": "18.7 µM (active)"}
{"compound": "CCOC(=O)C1CCN(C(=O)C(C)(C)NC(=O)Nc2ccc(Cl)cc2Cl)CC1", "Potency": "6.62 µM (active)"}
{"compound": "O=C(NC1CCCc2c1cnn2-c1ccc(F)cc1F)c1ccccc1 (stereo not given)", "Potency": "14.8 µM (active)"}
{"compound": "CC1=C(C(=O)NC2CCCc3c2cnn3-c2ccc(F)cc2F)OCCO1 (stereo not given)", "Potency": "13.2 µM (active)"}
{"compound": "CC1(C)CCC(c2ccc(Cl)cc2)=C(CN2CCN(c3ccc(C(=O)NS(=O)(=O)c4ccc(N[C@H](CCN5CCOCC5)CSc5ccccc5)c(S(=O)(=O)C(F)(F)F)c4)cc3)CC2)C1", "Potency": "3.72 µM (active)"}
{"compound": "CCOc1ccc(CCN(C)C(=O)c2cc3sccc3n2Cc2ccccc2)cc1OCC", "Potency": "11.8 µM (active)"}
{"compound": "CCOC(=O)C1CCN(C(=O)C(C)(C)NC(=O)Nc2cccc(OC)c2)CC1", "Potency": "16.6 µM (active)"}
{"compound": "CCOC(=O)C1CCN(C(=O)C(C)(C)NC(=O)Nc2ccc(Oc3ccccc3)cc2)CC1", "Potency": "6.62 µM (active)"}
{"compound": "CC(NCc1ccc2c(c1)nc(NC(=O)c1ccc(-c3cn[nH]c3)s1)n2CC(C)(C)O)C(C)(C)C (stereo not given)", "Potency": "4.69 µM (active)"}
